# Tested on: MS2 coat protein
# Procedure details: apparent KD of MS2 coat protein; higher = weaker reporter binding
# Setup conditions: Eterna round: R101; input ligand: none
Property name: apparent KD of MS2 coat protein (nM)
Just the number in nM, nothing appended.

Sure, the documented apparent KD of MS2 coat protein for AAGUGAAAUCAGAAGGGCUCCAGCAAAGCUGGAGCAGGAUAUGAGGAUCACCCAUAUCACCUGACGGUCGAAACGACCGUCAGG [#SharedSequence - IExNG1: 5-1] (puzzle (switch architecture): Inverted Exclusion NG 1) is 21.2

Sure, the documented apparent KD of MS2 coat protein for AAAUAAACUCAAGGAUAUCAGUGGCAAAGCCACUGAGAAGGUGAGGAUCACCCACCUAAGAUCACAGGUGACGAAAGUCACCUG [#SharedSequence ExNG1 - 37] (puzzle (switch architecture): Exclusion NG 1) is 11.2

Sure, the documented apparent KD of MS2 coat protein for UUGGUUGUCGUAGGAUAUGUAGGAUAUUCCUACAUGAGGAUCACCCAUGUUCGCAUGGAAGAAGGACAGAAGGACGAUGACCAU [salish99_SSNG2_001 #endbits investigation] (puzzle (switch architecture): Same State NG 2) is 1280

Sure, the documented apparent KD of MS2 coat protein for CUAUUAUAUGUAGGAUAUGCAUAUUAUUAUUGUGCAGAAGGACAUGAGGAUCACCCAUGUAUAUUAUUAUUAUAUAUUAUAUAU (puzzle (switch architecture): Exclusion NG 1) is 16.5

Sure, the documented apparent KD of MS2 coat protein for GGAGACCUUACAGGAUAUGCUGGACUUUGUCCAGCAGAAGGGUGAAUACAUGAGGAUCACCCAUGUAUGGUCUCCAAAUUUAAU [jl-ssng1-3.05 #GC_VS_GU_SWITCHING] (puzzle (switch architecture): Same State NG 1) is 52.2

Sure, the documented apparent KD of MS2 coat protein for AAAUAAAUUGAAGGAUAUGACCCUCGAGGUGACUAAAAGUCACCUCGAGGGUCAGAAGGUCGAGGAUCACCCGAUCUAAAUAAA [#SharedSequence SLExNG1: 1-1] (puzzle (switch architecture): Small Loop Exclusion NG 1) is 8.27

Every entry's value here was drawn from the supplement of paper PMC9170038.
